Target: SST5 (Homo sapiens)
Sequence (P35346 whole entry): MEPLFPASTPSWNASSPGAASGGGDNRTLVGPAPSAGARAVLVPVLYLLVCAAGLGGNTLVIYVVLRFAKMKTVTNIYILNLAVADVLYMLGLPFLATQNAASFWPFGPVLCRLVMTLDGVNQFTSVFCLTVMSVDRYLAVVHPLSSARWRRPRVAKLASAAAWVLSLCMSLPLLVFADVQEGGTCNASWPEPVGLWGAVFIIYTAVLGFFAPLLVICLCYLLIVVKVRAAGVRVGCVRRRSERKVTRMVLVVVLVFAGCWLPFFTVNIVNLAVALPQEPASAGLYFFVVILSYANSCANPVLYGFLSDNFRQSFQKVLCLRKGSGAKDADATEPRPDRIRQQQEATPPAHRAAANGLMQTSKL
Experiment: Hit Hunter cAMP XS+ assay, SST5 activation via Gi (reduction of forskolin-stimulated cAMP)
Format: cell-based
Details: read-out: SST5 (EMax)
*1 amine or outer side, *2 acyl side, *3 side chain or, on linkers, in order; H or OH if unused. Where a SMILES comes first, the peptide text is derived from it. Side-chain parts run from the residue outwards. [ ]: non-standard residue; d: D form. The star is where a group is joined. Ala(piperidin-4-yl) = O=C([C@H](CC1CCN([*:3])CC1)N[*:1])[*:2]; dTrp(4-OMe) = COc1cccc2[nH]cc(C[C@@H](N)C(=O)O)c12; dTrp(4-Me) = Cc1cccc2[nH]cc(C[C@@H](N)C(=O)O)c12; Ala(piperazin-1-yl) = N[C@@H](CN1CCNCC1)C(=O)O; Pro(4,4-F2) = O=C(O)[C@@H]1CC(F)(F)CN1; Ethylenediamine = C(CN[*:2])N[*:1]; Hyp = O=C(O)[C@@H]1C[C@@H](O)CN1; hPhe = N[C@@H](CCc1ccccc1)C(=O)O; 3Pal = N[C@@H](Cc1cccnc1)C(=O)O; Benzyl(4-Cl) = Clc1ccc(C*)cc1; Phg = N[C@H](C(=O)O)c1ccccc1; CO = O=C([*:1])[*:2]; Bn = c1ccc(C*)cc1
measured metric: Emax
Reply with a number, then the unit it belongs to.

Solved entries (count: 5):
NCCNC(=O)O[C@@H]1C[C@H]2C(=O)N[C@@H](CCc3ccccc3)C(=O)N[C@H](Cc3c[nH]c4ccccc34)C(=O)N[C@@H](CN3CCNCC3)C(=O)N[C@@H](Cc3ccc(OCc4ccc(Cl)cc4)cc3)C(=O)N[C@@H](Cc3cccnc3)C(=O)N2C1 [Example 59] (cyclo([3Pal][Hyp]([CO-Ethylenediamine])[hPhe][dW][Ala(piperazin-1-yl)]Y(Benzyl(4-Cl))))
106%
Cc1cccc2[nH]cc(C[C@H]3NC(=O)[C@H](CCc4ccccc4)NC(=O)[C@@H]4C[C@@H](OC(=O)NCCN)CN4C(=O)[C@H](Cc4cccnc4)NC(=O)[C@H](Cc4ccc(OCc5ccccc5)cc4)NC(=O)[C@H](CC4CCNCC4)NC3=O)c12 [Example 60] (cyclo([3Pal][Hyp]([CO-Ethylenediamine])[hPhe][dTrp(4-Me)][Ala(piperidin-4-yl)]Y(Bn)))
104%
COc1cccc2[nH]cc(C[C@H]3NC(=O)[C@H](c4ccccc4)NC(=O)[C@@H]4C[C@@H](OC(=O)NCCN)CN4C(=O)[C@H](Cc4ccccc4)NC(=O)[C@H](Cc4ccc(OCc5ccccc5)cc4)NC(=O)[C@H](CN4CCNCC4)NC3=O)c12 [Example 64] (cyclo(F[Hyp]([CO-Ethylenediamine])[Phg][dTrp(4-OMe)][Ala(piperazin-1-yl)]Y(Bn)))
104%
NCCNC(=O)O[C@@H]1C[C@H]2C(=O)N[C@@H](CCc3ccccc3)C(=O)N[C@H](Cc3c[nH]c4ccccc34)C(=O)N[C@@H](CC3CCNCC3)C(=O)N[C@@H](Cc3ccc(OCc4ccc(Cl)cc4)cc3)C(=O)N[C@@H](Cc3cccnc3)C(=O)N2C1 [Example 40] (cyclo([3Pal][Hyp]([CO-Ethylenediamine])[hPhe][dW][Ala(piperidin-4-yl)]Y(Benzyl(4-Cl))))
106%
NCCNC(=O)O[C@@H]1C[C@H]2C(=O)N[C@@H](CCc3ccccc3)C(=O)N[C@H](Cc3c[nH]c4ccccc34)C(=O)N[C@@H](CC3CCNCC3)C(=O)N[C@@H](Cc3ccc(OCc4ccccc4)cc3)C(=O)N[C@@H](Cc3cccnc3)C(=O)N2C1 [Example 3] (cyclo([3Pal][Hyp]([CO-Ethylenediamine])[hPhe][dW][Ala(piperidin-4-yl)]Y(Bn)))
100%

Checklist item: Emax tested on SST5 (Homo sapiens), entry NCCNC(=O)O[C@@H]1C[C@H]2C(=O)N[C@@H](CCc3ccccc3)C(=O)N[C@H](Cc3c[nH]c4ccccc34)C(=O)N[C@@H](CN3CCNCC3)C(=O)N[C@@H](Cc3ccc(OCc4ccccc4)cc3)C(=O)N3CC(F)(F)C[C@H]3C(=O)N2C1 [Example 70] (cyclo([Hyp]([CO-Ethylenediamine])[hPhe][dW][Ala(piperazin-1-yl)]Y(Bn)[Pro(4,4-F2)])) , value?
102%
